biological target: 15-PGDH (Homo sapiens); construct: endogenous in cells; host or cells: A549 human lung adenocarcinoma cells; assay: A549 cell based assay: PGE2 in supernatant (HTRF), fold induction over IL-1β; conditions: A549 cells, compound 1 μM plus IL-1β versus IL-1β only; read-out: PGE2-HTRF over IL1-β: Fold induction at 1 μM
reported_endpoint: fold induction at 1 µM
Form rule: numeric answer, no unit written next to it.

Entry Cc1nc(-c2ccc(-n3nnc4cc(C(=O)N5CCC[C@H](C)C5)cnc43)cc2)no1 under 15-PGDH (Homo sapiens) had fold induction at 1 µM of 4.88

For O=C(c1cnc2c(cnn2-c2ccc(-c3ncn[nH]3)cc2)c1)N1CCC(F)(F)CC1 on 15-PGDH (Homo sapiens), measured fold induction at 1 µM was 4.88

The compound C[C@H]1CCCN(C(=O)c2cnc3c(cnn3-c3ccc(N4CCOC4=O)nc3)c2)C1 , tested on 15-PGDH (Homo sapiens), showed fold induction at 1 µM of 6.39

Considering CCOc1ccc(-n2nnc3cc(C(=O)N4CCC[C@H](C)C4)cnc32)cc1 , its fold induction at 1 µM with 15-PGDH (Homo sapiens) was recorded as 3.79

Response field fold induction at 1 µM (15-PGDH (Homo sapiens)) for item C[C@H]1CCCN(C(=O)c2cnc3c(cnn3-c3ccc(N4CCNC4=O)nc3)c2)C1 : 4.86

Measured fold induction at 1 µM for this entry O=C(c1cnc2c(cnn2-c2cncc(N3CCOCC3)c2)c1)N1CCC(F)(F)CC1 on 15-PGDH (Homo sapiens): 3.61

Here C[C@H]1CCCN(C(=O)c2cnc3c(cnn3-c3ccc(N4CCOCC4)nc3)c2)C1 was tested on 15-PGDH (Homo sapiens), and its fold induction at 1 µM came to 3.45

Considering C[C@H]1CCCN(C(=O)c2cnc3c(cnn3-c3ccc4nc(N)nn4c3)c2)C1 , its fold induction at 1 µM with 15-PGDH (Homo sapiens) was recorded as 4.68

Entry O=C(c1cnc2c(cnn2-c2ccc(-c3nnc[nH]3)cc2)c1)N1CCCC(F)(F)C1 , tested on 15-PGDH (Homo sapiens), has a reported fold induction at 1 µM of 4.32

For C[C@H]1CCCN(C(=O)c2cnc3c(c2)nnn3-c2ccc(-c3nnc[nH]3)cc2)C1 on 15-PGDH (Homo sapiens), measured fold induction at 1 µM was 4.5

---

Can you tell me fold induction at 0.1 µM for the items I'm about to list?
Target: 15-PGDH (Homo sapiens)
Construct: endogenous in cells; host or cells: A549 human lung adenocarcinoma cells
Sequence (P15428 1-266): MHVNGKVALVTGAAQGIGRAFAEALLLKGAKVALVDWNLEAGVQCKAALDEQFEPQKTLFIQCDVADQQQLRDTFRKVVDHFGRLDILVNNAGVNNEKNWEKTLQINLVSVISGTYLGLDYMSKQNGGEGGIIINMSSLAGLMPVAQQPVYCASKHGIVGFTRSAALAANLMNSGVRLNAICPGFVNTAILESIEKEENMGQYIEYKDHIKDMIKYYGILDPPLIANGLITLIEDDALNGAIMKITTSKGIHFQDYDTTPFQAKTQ
Test: A549 cell based assay: PGE2 in supernatant (HTRF), fold induction over IL-1β
Settings: A549 cells, compound 0.1 μM plus IL-1β versus IL-1β only; read-out: PGE2-HTRF over IL1-β: Fold induction at 0.1 μM
Answer with a bare number; do not write a unit.

For C[C@H]1CCCN(C(=O)c2cnc3c(cnn3-c3ccc(N4CCOCC4)nc3)c2)C1 on 15-PGDH (Homo sapiens), measured fold induction at 0.1 µM was 1.8

Param item: C[C@H]1CCCN(C(=O)c2cnc3c(cnn3-c3ccc4nc(N)nn4c3)c2)C1 ; param system: 15-PGDH (Homo sapiens); output fold induction at 0.1 µM: 3.36

Entry O=C(c1cnc2c(cnn2-c2ccc(-c3ncn[nH]3)cc2)c1)N1CCC(F)(F)CC1 ; assay system 15-PGDH (Homo sapiens); fold induction at 0.1 µM recorded at 5.31

The reported 15-PGDH (Homo sapiens) fold induction at 0.1 µM of O=C(c1cnc2c(cnn2-c2cncc(N3CCOCC3)c2)c1)N1CCC(F)(F)CC1 is 2.06

So the reported fold induction at 0.1 µM for C[C@H]1CCCN(C(=O)c2cnc3c(cnn3-c3ccc(N4CCOC4=O)nc3)c2)C1 , on 15-PGDH (Homo sapiens), turned out to be 4.84

Record C[C@H]1CCCN(C(=O)c2cnc3c(c2)nnn3-c2ccc(-c3nnc[nH]3)cc2)C1 has 15-PGDH (Homo sapiens) fold induction at 0.1 µM equal to 3.61
